# System: R275C/Slo1WT/beta2
# assayText: modulators of BK channel variants, profiling panel, selectivity assay, cell-based, U2OS BacMam, thallium flux, beta subunits (AID 1259406);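 further: initial slope of Thallos dye fluorescence rise after thallium is added; log ratio against the mean of 0.3% DMSO vehicle wells on the same plate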
# conditionDetails: at 30 µM
We begin with a simple list: items and their reported log fold change Tl+ flux.
Answer with a number only.

Known log fold change Tl+ flux results, listed for orientation:
| compound | log fold change Tl+ flux |
| --- | --- |
| CC[C@H]1OC(=O)[C@H](C)[C@@H](O[C@H]2C[C@@](C)(OC)[C@@H](O)[C@H](C)O2)[C@H](C)[C@@H](O[C@@H]2O[C@H](C)C[C@H](N(C)C)[C@H]2O)[C@](C)(O)C[C@@H](C)CN(C)[C@H](C)[C@@H](O)[C@]1(C)O | 0.026 |
| CSc1n[nH]c(N)c1S(=O)(=O)C(C)C | 0.0141 |
| O=S(=O)(c1ccc(-c2cc(C(F)(F)F)on2)s1)N1CCc2c([nH]c3ccc(F)cc23)C1 | 0.00527 |
| O=C1CSC(=S)N1N=Cc1cccnc1 | -0.022 |
| Cc1ccc(NC(=S)NCCO)cc1 | 0.0248 |
| CCOC(=O)c1sc(SC)nc1N | 0.0235 |
| CN1c2ccccc2C(C)(C)C12C=Cc1cc(Br)cc([N+](=O)[O-])c1O2 (stereo not given) | -0.0665 |
| CC(C)C1COC(c2cccc(C3=NC(C(C)C)CO3)n2)=N1 (stereo not given) | 0.043 |

Looking for the measured log fold change Tl+ flux of CC12CCC(=O)C=C1CCC1C2CCC2(C)C1CCC2(O)C(=O)CO (stereo not given) , can you help?
-0.0119

Looking for the measured log fold change Tl+ flux of Cc1cccc(CCN2CCC(C(=O)c3ccc(NS(C)(=O)=O)cc3)CC2)n1 , can you help?
-0.028

Looking for the measured log fold change Tl+ flux of O=S(=O)(Cc1nc(C=Cc2cc(C(F)(F)F)cc(C(F)(F)F)c2)no1)c1ccc(Cl)cc1 , can you help?
0.00318

Looking for the measured log fold change Tl+ flux of Cc1cc2c(NC(=O)c3ccccc3C(=O)O)cccc2nn1 , can you help?
-0.00217

Looking for the measured log fold change Tl+ flux of O=C1C(=Cc2cc(-c3ccccc3)c(C(F)(F)F)s2)CSc2ccc(Cl)cc21 , can you help?
0.0572

Looking for the measured log fold change Tl+ flux of CC(COc1ccccc1Cc1ccccc1)N1CCCCC1 (stereo not given) , can you help?
-0.0412

Looking for the measured log fold change Tl+ flux of Cc1cc(-c2nn(C)c(=O)c3ccccc23)cc(C)c1O , can you help?
-0.0205

Looking for the measured log fold change Tl+ flux of CC(=O)OCC(=O)C1(O)C(C)CC2C3CCC4CC(=O)C=CC4(C)C3C(O)CC21C (stereo not given) , can you help?
0.00132

Looking for the measured log fold change Tl+ flux of O=C(O)c1cccc(CSc2cccs2)c1 , can you help?
0.0372

Looking for the measured log fold change Tl+ flux of O=C(CN1c2ccccc2Sc2ccccc21)NN=Cc1ccco1 , can you help?
0.032

Looking for the measured log fold change Tl+ flux of NCC(O)c1ccc(O)c(O)c1 (stereo not given) , can you help?
0.093

###

# assayText: growth inhibition of DIPG glioma cells, dose response, cell-based, SU-DIPG-IV, MIPE4.0, CellTiter-Glo, qHTS (AID 1347063);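 further: compound exposure lasted 48 hours before the viability readout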
# conditionDetails: SU-DIPG-IV viability, CellTiter-Glo ATP luminescence
Results filed as inconclusive are left out. Activity calls are given as the source filed them. The limit is not given here; nearly all actives have AC50 up to about 30 µM.
Tick one outcome: Yes for active, No for inactive

Example results:
| compound | assignedLabel |
| --- | --- |
| CCCc1nc(C(C)(C)O)c(C(=O)O)n1Cc1ccc(-c2ccccc2-c2nn[nH]n2)cc1 | No |
| N#Cc1c(O)c2c(-c3ccc(-c4ccccc4O)cc3)csc2[nH]c1=O | No |
| O=S(=O)(NCCNC/C=C/c1ccc(Br)cc1)c1cccc2cnccc12 | Yes |

As a next step, examine the compound that follows.
State the result this test recorded for CC[C@H]1OC(=O)[C@H](C)[C@@H](O[C@H]2C[C@@](C)(OC)[C@@H](O)[C@H](C)O2)[C@H](C)[C@@H](O[C@@H]2O[C@H](C)C[C@H](N(C)C)[C@H]2O)[C@](C)(O)C[C@@H](C)CN(C)[C@H](C)[C@@H](O)[C@]1(C)O .
No

###

# systemName: L-lactate dehydrogenase (Plasmodium falciparum (isolate CDC / Honduras))
# assayText: PfLDH activity inhibition – cell lysate, 3D7 strain, counter-screen for P. falciparum growth inhibition project (AID 2304);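 further: 0% = vehicle and 100% = reference inhibitor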
# conditionDetails: P. falciparum 3D7 crude extract, LDH APAD/NBT absorbance; at 2 µM; stronger effect = higher value
We begin with a simple list: items and their reported inhibition.
# output: bare number, implied unit %

Known inhibition results, listed for orientation:
| compound | unitOfMeasure | inhibition |
| --- | --- | --- |
| CC1CCCN(Cc2cc(Cl)cc(Cl)c2O)C1 (stereo not given) | % | 5 |
| CC(=O)Oc1c(C(=O)C2CCC(C(C)(C)C)CC2)c(OC(C)=O)c2ccccc2c1OC(C)=O (stereo not given) | % | 2 |
| Cc1ccc(Nc2nc(C)cc(NCc3ccc(-n4ccnc4)cc3)n2)cc1 | % | 1 |
| CN(CCN1CCC(c2c[nH]c3ccccc23)CC1)c1ccc(-c2nc3cc(Cl)c(Cl)cc3[nH]2)cc1 | % | -1 |

Next, consider the following compound.
Looking for the measured inhibition of Nc1cc2c(C3CCN(CC4CCN(C(=O)/C=C/c5ccc(Cl)c(Cl)c5)CC4)CC3)c[nH]c2cn1 , can you help?
-3

###

# Tested on: R275C
# assayText: modulators of BK channel variants, profiling panel, selectivity assay, cell-based, U2OS BacMam, thallium flux, beta subunits (AID 1259406);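 further: initial slope of Thallos dye fluorescence rise after thallium is added; log ratio against the mean of 0.3% DMSO vehicle wells on the same plate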
# conditionDetails: at 30 µM
The source made the active and inactive calls.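 The calls were made as follows: active = thallium flux through the channel raised or lowered by more than 3 SD from vehicle-only wells, actives on both sides; inactive = the rest.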
Tick one outcome: active, inactive

Example results:
| molecule | assignedLabel |
| --- | --- |
| O=c1ncc(F)c[nH]1 | inactive |
| O=c1[nH]c(=O)n(C2CC(O)C(CO)O2)cc1F (configuration not stated) | inactive |
| CCOC(=O)c1sc(SC)nc1N | active |
| Cc1cc2c(cc1C)CSC(c1ccco1)SC2 | inactive |
| Cc1cc(C(=O)N2CCN(c3ncccc3C#N)CC2)no1 | inactive |

State the result this test recorded for COC(=O)c1cnn(C(=O)Nc2c(C)cccc2C)c1C(OC)OC .
inactive

State the result this test recorded for Cc1ccc(NC(=S)NCCO)cc1 .
inactive

State the result this test recorded for COc1ccc(C(=O)NNC(=O)c2c(OC)cc(C(F)(F)F)cc2C(F)(F)F)cc1 .
inactive

State the result this test recorded for CN(C)C=NC(=O)c1sc(S(C)(=O)=O)c2c1CCC=C2 .
inactive

###

# assayText: growth inhibition of DIPG glioma cells, dose response, cell-based, JHH-DIPG-1, MIPE4.0, CellTiter-Glo, qHTS (AID 1347062);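 on AC50: cells exposed to compound for two days before readout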
# conditionDetails: JHH-DIPG-1 viability, CellTiter-Glo ATP luminescence
Records with an inconclusive call do not appear. Activity calls are given as the source filed them. The limit is not given here; nearly all actives have AC50 up to about 27 µM.
Tick one outcome: True = active, False = inactive

State the result this test recorded for CCOC(=O)C1=C(N)Oc2ccc(Br)cc2C1C(C#N)C(=O)OCC (configuration not stated) .
True

State the result this test recorded for CC1CC2C3CCC4=CC(=O)C=C[C@]4(C)[C@@]3(F)[C@@H](O)C[C@]2(C)[C@@]1(O)C(=O)CO (some centres not stated) .
False

State the result this test recorded for Nc1ncnc2nc(-c3ccc(N4CCOCC4)nc3)cc(-c3cccc(Br)c3)c12 .
False

###

# assayText: rescue of polyQ-huntingtin neuronal dysfunction in worms, whole organism, C. elegans mechanosensory neurons, N-terminal huntingtin (AID 1599)
# conditionDetails: touch response, stronger effect = higher value
Measured potencies and affinities stand elsewhere.
Parameter threshold = 4. Response is class 1 when rescue above control meets or exceeds it, else class 0.

Example results:
| molecule | assignedLabel |
| --- | --- |
| C#C[C@]1(O)CCC2C3CCC4=Cc5oncc5C[C@]4(C)C3CC[C@@]21C (stereo not given in full) | class 1 |
| C[C@H](CCC(=O)O)[C@H]1CCC2C3C(CC[C@@]21C)[C@@]1(C)CC[C@@H](O)C[C@H]1C[C@@H]3O (stereo not given in full) | class 0 |
| CC(=O)[C@H]1CCC2C3CCC4=CC(=O)CC[C@]4(C)C3CC[C@@]21C (stereo not given in full) | class 0 |
| CC(=O)OCC(=O)[C@@]12OC3(CCCC3)O[C@@H]1CC1C3CCC4=CC(=O)C=C[C@]4(C)[C@@]3(F)[C@@H](O)C[C@@]12C (stereo not given in full) | class 0 |

Is rescue above control for COc1ccc(C2Sc3ccccc3N(CCN(C)C)C(=O)C2OC(C)=O)cc1 (stereo not given) at or above 4?
class 0

###

# assayText: modifiers of HSF1 nuclear foci, imaging, Selleck Cancer Library (AID 1347162)
# conditionDetails: human cells, at 10 µM; measured here: HSF1 foci SSMD mean
We begin with a simple list: items and their reported SSMD.
Answer with a number only.

| compound | SSMD |
| --- | --- |
| CC(C)(C)c1ccc(S(=O)(=O)/C=C/C#N)cc1 | -5.26 |

Looking for the measured SSMD of NC(=O)Nc1sc(-c2ccc(F)cc2)cc1C(N)=O , can you help?
-1.15

Looking for the measured SSMD of COc1ccc(-c2oc3cc(OC)ccc3c2C(=O)c2ccc(C#N)cc2)cc1 , can you help?
3.38

Looking for the measured SSMD of CCN(CC)CCCC(C)Nc1nc(C)cc(Nc2ccc3nc(C)cc(N)c3c2)n1 (configuration not stated) , can you help?
3.48

Looking for the measured SSMD of O=c1[nH]nc(Sc2ncc([N+](=O)[O-])s2)n1-c1ccc2c(c1)OCCO2 , can you help?
-8.15

Looking for the measured SSMD of Oc1ccc(Nc2nc(-c3ccc(Cl)cc3)cs2)cc1 , can you help?
1.25

Looking for the measured SSMD of CN1C(=O)C(Cc2c[nH]c3ccccc23)NC1=S (configuration not stated) , can you help?
1.64

Looking for the measured SSMD of COc1cccc2c1C(=O)c1c(O)c3c(c(O)c1C2=O)C[C@@](O)(C(=O)CO)C[C@@H]3O[C@H]1C[C@H](N)[C@@H](O)[C@H](C)O1 , can you help?
-16.4

Looking for the measured SSMD of Nc1nc(Cl)nc2c1ncn2[C@H]1C[C@H](O)[C@@H](CO)O1 , can you help?
-4.5

Looking for the measured SSMD of NC(=O)c1ccc(-c2nc(-c3ccc4c(c3)OCCO4)c(-c3ccccn3)[nH]2)cc1 , can you help?
3.6
